The origin of these recorded values is PubChem BioAssay (NCI).

# reported TGI; entries follow
- Test system: NCI-H522 lung
- assay explanation: NCI tumour cell line growth inhibition, 48 h
test readout: TGI

[[record]]
molecule = "Cc1ccc(NC(=S)C#N)c(C)c1"
measurement_target = "NCI-H522 lung"
reported_measurement = "> 100 µM"

[[record]]
molecule = "CCOC(=O)C(=O)Nc1c(C)cccc1C(C)(C)C"
measurement_target = "NCI-H522 lung"
reported_measurement = "> 100 µM"

[[record]]
molecule = "CC(=O)c1c2c(cc3c1CC1(Cc4cc5c(cc4C1)C(=O)CCC5)C3)CCCC2 (configuration not stated)"
measurement_target = "NCI-H522 lung"
reported_measurement = "31.4 µM"

[[record]]
molecule = "CN(C)CCNC(=O)c1cccc2c1Oc1cccc([N+](=O)[O-])c1O2"
measurement_target = "NCI-H522 lung"
reported_measurement = "32.9 µM"

[[record]]
molecule = "CC(=O)[CH-]C(=O)c1ccccc1.CC(=O)[CH-]C(=O)c1ccccc1.CC[C@H](/C=C/C(C)[C@H]1CCC2[C@@H]3CC=C4C[C@@H]([O-])CC[C@]4(C)C3CC[C@@]21C)C(C)C.CC[C@H](/C=C/C(C)[C@H]1CCC2[C@@H]3CC=C4C[C@@H]([O-])CC[C@]4(C)C3CC[C@@]21C)C(C)C.Cl.[Ti+4] (some centres not stated)"
measurement_target = "NCI-H522 lung"
reported_measurement = "> 25 µM"

[[record]]
molecule = "CN(C)C(=S)/N=c1\\ssc(=S)n1Cc1ccco1"
measurement_target = "NCI-H522 lung"
reported_measurement = "2.07 µM"

[[record]]
molecule = "CCCCCCCCCCCCCCCCCCOCC(C[N+]1(C)CCC(O)CC1)OCC (configuration not stated)"
measurement_target = "NCI-H522 lung"
reported_measurement = "31 µM"

[[record]]
molecule = "CCCCCCCCCC(=O)NC(CCC(=O)N(CCNC(=O)c1nc(-c2ccccc2)oc1-c1ccccc1)Cc1ccccc1)C(=O)O (configuration not stated)"
measurement_target = "NCI-H522 lung"
reported_measurement = "34.3 µM"

[[record]]
molecule = "COC(=O)[C@]12C3=C(O)C(=O)C[C@H]1OC[C@H]2C=CC3"
measurement_target = "NCI-H522 lung"
reported_measurement = "46.8 µM"

[[record]]
molecule = "CC(=O)O[C@@H]1C2=C(C)C3(CC3)[C@@](C)(O)C(=O)C2=C[C@@]1(C)CO"
measurement_target = "NCI-H522 lung"
reported_measurement = "4.44 µM"

[[record]]
molecule = "C=C1C2CC3CCC2C(OC(=O)c2ccccc2C(=O)O)C13 (configuration not stated)"
measurement_target = "NCI-H522 lung"
reported_measurement = "> 100 µM"

[[record]]
molecule = "COc1ccc(NC(=O)c2oc3cc(O)ccc3c(=O)c2C)c([N+](=O)[O-])c1"
measurement_target = "NCI-H522 lung"
reported_measurement = "> 100 µM"

[[record]]
molecule = "Cc1cc(Cl)nc(N(CCCNc2ccnc3cc(Cl)ccc23)Cc2cccs2)n1"
measurement_target = "NCI-H522 lung"
reported_measurement = "4.31 µM"

[[record]]
molecule = "O=C1NC2(CCCCC2)C2CCCCC=C12 (configuration not stated)"
measurement_target = "NCI-H522 lung"
reported_measurement = "> 100 µM"

[[record]]
molecule = "CCOC(=O)c1c(N2CCOCC2)ncn(-c2cccc(Cl)c2)c1=O"
measurement_target = "NCI-H522 lung"
reported_measurement = "> 100 µM"

[[record]]
molecule = "C#CCOc1cccc(Nc2ncnc3cc(NC(=O)C=C)ccc23)c1"
measurement_target = "NCI-H522 lung"
reported_measurement = "34.2 µM"

[[record]]
molecule = "C=C1CCC2[C@](C)(CCC[C@]2(C)C(=O)O)[C@@H]1CCc1ccoc1 (some centres not stated)"
measurement_target = "NCI-H522 lung"
reported_measurement = "> 100 µM"

[[record]]
molecule = "CC(=Nc1cccc(Cl)c1)c1ccncc1"
measurement_target = "NCI-H522 lung"
reported_measurement = "> 100 µM"

[[record]]
molecule = "C[C@H]1COCCN1c1nc(-c2cnc(N)cc2C(F)F)nc(N2CCOCC2)n1"
measurement_target = "NCI-H522 lung"
reported_measurement = "> 60.8 µM"

[[record]]
molecule = "O=C(COC(=O)c1cccc2c(=O)c3ccccc3[nH]c12)Nc1ccc(Cl)cc1"
measurement_target = "NCI-H522 lung"
reported_measurement = "> 100 µM"

[[record]]
molecule = "N#Cc1c(N)nc(SCc2ccccc2)c(C#N)c1-c1ccc(O)cc1"
measurement_target = "NCI-H522 lung"
reported_measurement = "36.3 µM"

[[record]]
molecule = "COc1ccc(C[C@@H](C(=O)O[C@H](C)[C@H](NC(=O)[C@@H](CC(C)C)N(C)C(=O)C2CCCN2C(=O)[C@H](C)O)C(=O)N2CCCCNC(=O)[C@@H](C)C(=O)[C@H](C(C)C)OC(=O)C[C@H](O)[C@H]2CC(C)C)N(C)C(C)=O)cc1 (some centres not stated)"
measurement_target = "NCI-H522 lung"
reported_measurement = "> 50 µM"

[[record]]
molecule = "NCCCC(N=Cc1nc(-c2ccccc2)oc1O)C(=O)O (configuration not stated)"
measurement_target = "NCI-H522 lung"
reported_measurement = "> 100 µM"

[[record]]
molecule = "O=S(O)CCCSSSCCCS(=O)O"
measurement_target = "NCI-H522 lung"
reported_measurement = "> 100 µM"

[[record]]
molecule = "OC(CN1CCCC2CCCCC21)c1cc2ccccc2c2ccccc12 (configuration not stated)"
measurement_target = "NCI-H522 lung"
reported_measurement = "3.06 µM"

[[record]]
molecule = "COc1cc2c3c(n([C@@H]4CCOC4)c(=O)c2cc1OC)-c1cc2c(cc1C3=O)OCO2"
measurement_target = "NCI-H522 lung"
reported_measurement = "> 100 µM"

[[record]]
molecule = "CN(C)CC1C(=O)O[C@H]2[C@H]1CC/C(COC(=O)NCc1ccc(Cn3c(=O)sn(CCCI)c3=O)cc1)=C\\CC[C@@]1(C)O[C@@H]21 (some centres not stated)"
measurement_target = "NCI-H522 lung"
reported_measurement = "1.68 µM"

[[record]]
molecule = "CC(C)[C@@H]1CC[C@@H](C)C[C@H]1OC(=O)/C=C1\\C(C(=O)O[C@@H]2C[C@H](C)CC[C@H]2C(C)C)[C@H]2C=C[C@@H]1O2 (some centres not stated)"
measurement_target = "NCI-H522 lung"
reported_measurement = "> 100 µM"

[[record]]
molecule = "C=C(C)C1CCC2=CC(CC3(C)OC3C3=CC(C(=O)OC)=C(C1)O3)OC2=O (configuration not stated)"
measurement_target = "NCI-H522 lung"
reported_measurement = "> 100 µM"

[[record]]
molecule = "Cc1c(Cl)cccc1NC(=O)c1sc2nc3c(cc2c1N)C(=O)CCC3"
measurement_target = "NCI-H522 lung"
reported_measurement = "0.395 µM"

[[record]]
molecule = "COc1ccc(CCc2ccc3c(c2)OCO3)cc1"
measurement_target = "NCI-H522 lung"
reported_measurement = "> 100 µM"

[[record]]
molecule = "CC(=O)N1C(CCc2ccccc2)CC(C)(C=O)C1Cc1ccc(O[Si](C(C)C)(C(C)C)C(C)C)cc1 (configuration not stated)"
measurement_target = "NCI-H522 lung"
reported_measurement = "5.95 µM"

[[record]]
molecule = "O=C1C=C(NCC(c2ccccc2)c2ccccc2)C(=O)c2ncccc21"
measurement_target = "NCI-H522 lung"
reported_measurement = "3.57 µM"

[[record]]
molecule = "COc1ccc(C(OCC2OC3(COC(c4ccccc4)(c4ccc(OC)cc4)c4ccc(OC)cc4)C(Oc4nc(=O)ccn43)C2O)(c2ccccc2)c2ccc(OC)cc2)cc1 (configuration not stated)"
measurement_target = "NCI-H522 lung"
reported_measurement = "> 100 µM"

[[record]]
molecule = "Clc1cc(OCc2nn3c(Cc4ccccc4)nnc3s2)c(Cl)cc1OCc1nn2c(Cc3ccccc3)nnc2s1"
measurement_target = "NCI-H522 lung"
reported_measurement = "> 100 µM"

[[record]]
molecule = "CCOC(=O)C1=C(O)C(=O)c2ccoc2C1=O"
measurement_target = "NCI-H522 lung"
reported_measurement = "> 100 µM"

[[record]]
molecule = "Cc1c(NC(=O)CSC(=S)N(C)C)c(=O)n(-c2ccccc2)n1C"
measurement_target = "NCI-H522 lung"
reported_measurement = "> 100 µM"

